In this section, each of the molecules is paired with its reported GI50.
# Tested on: NCI-H226 lung
# Assay protocol: NCI tumour cell line growth inhibition, 48 h

For orientation, consider the following solved cases.
INSERT INTO assay_data (molecule, measured_result) VALUES
  ('O=C(Nc1ccc(Cl)c(Cl)c1)c1cccc(NC2=C(Cl)C(=O)N(Cc3ccccc3)C2=O)c1', '35.5 µM'),
  ('CCS(=O)(=O)N1CCC(C(C)n2c(C)c(C(=O)NCc3c(OC)cc(C)[nH]c3=O)c3ccccc32)CC1 (stereo not drawn)', '> 100 µM');

Next:
Fill blank: measured GI50 of the molecule COc1cc(C(=O)/C=C/c2c(C)n([O-])c3ccc(C)cc3[n+]2=O)cc(OC)c1OC is ____. 30.6 µM

* * *

In this section, each of the compounds is paired with its reported TGI.
# Tested on: ACHN renal
# Assay protocol: NCI tumour cell line growth inhibition, 48 h

For orientation, consider the following solved cases.
INSERT INTO results (compound, measured_result) VALUES
  ('CCC(C#N)(c1ccccc1)N(CCc1ccccc1)C(=O)c1ccccc1 (configuration not stated)', '> 100 µM'),
  ('CCOc1ccccc1NC(=O)CC1C(=O)Nc2ccccc2S1=O (configuration not stated)', '> 100 µM'),
  ('CCCCC[C@H](O)/C=C/[C@@H]1[C@@H](C/C=C\CCCC(=O)O)[C@@H](O)C[C@H]1O', '> 100 µM'),
  ('O=c1cc(NCCCCCO)[nH]c(=O)[nH]1', '> 100 µM'),
  ('O=C(O)CCNc1ccccc1C(=O)O', '> 100 µM');

Fill blank: measured TGI of the compound CCOC(=O)CN1C(=O)c2c(c(C)n(-c3ccccc3)c2C)C1=O is ____. > 100 µM

What do you get for O=C1C(Cl)=C(Nc2cccc(Cl)c2)C(=O)N1Cc1ccccc1 ? 28.8 µM

What do you get for NCCNc1c2c(c(NCCN)c3c(CO)c[nH]c13)C(=O)c1ccccc1C2=O ? > 100 µM

What do you get for O=C(Nc1nnc(-c2ccccc2)o1)C(SC(=S)N1CCCCC1)c1ccccc1 (configuration not stated) ? 75.7 µM

* * *

# Tested on: 786-0 renal
# Assay protocol: NCI tumour cell line growth inhibition, 48 h
Value type: TGI (µM)
# output: bare number, implied unit µM

For orientation, consider the following solved cases.
INSERT INTO assay_data (compound, target, measured_result) VALUES
  ('Brc1ccc2[nH]cc(-c3csc(-c4ccccn4)n3)c2c1', '786-0 renal', 20.3),
  ('C=C(CN(C)C)C(=O)c1ccccc1C', '786-0 renal', 35.8),
  ('COc1cccc2c1C(=O)C=CC2=O', '786-0 renal', 23.9),
  ('CCSCC1CC(O)(c2ccccc2)C(c2ccccc2)C(c2ccc(Cl)cc2)O1 (stereo not given)', '786-0 renal', 3.26);

Next:
Lab note: need TGI for O=C(NC1CCN(Cc2ccccc2)CC1)c1cc(-c2ccncc2)nc2ccc(Cl)cc12 on 786-0 renal, anyone have it? 28.7

* * *

# Tested on: HOP-62 NSCLC
# Assay protocol: NCI tumour cell line growth inhibition, 48 h
Value type: TGI

For orientation, consider the following solved cases.
INSERT INTO assay_data (molecule, measured_result) VALUES
  ('COc1cccc(C2c3cc4c(cc3OC(C)(N3CCCC3)C2C)OCO4)c1OC (stereo not given)', '30.6 µM'),
  ('Cc1cc(N(CCC#N)CCC#N)ccc1/C(N=Nc1ccc(Cl)cc1)=N\NC(=O)c1cc(Cl)ccc1O', '56.6 µM'),
  ('CC(=O)N[C@@H](Cc1ccc(OP(=O)(O)O)cc1)C(=O)N[C@H]1CCC(=O)N2CCC[C@@H](C(=O)NCc3ccc(Cl)cc3)N2C1=O', '> 25 µM'),
  ('Nc1sc2c(c1C(=O)c1ccc(Cl)c(Cl)c1)CCCC2', '> 100 µM');

Next:
Fill blank: measured TGI of the molecule Nc1c(C(=O)c2cccc(CCCN3CCOCC3)c2)cnn1-c1ccc(F)cc1 is ____. > 25 µM

// provenance: PubChem BioAssay (NCI)
